Tested on: 138582-337-R-J1-PDC complex spheroid viability
Assay: Anticancer human tumor 138582-337-R-J1-PDC patient-derived Merkel cell tumor cell line growth inhibition
Settings: curve of first compound; second compound 3.16 µM
Text: Multicellular complex tumor spheroid response to LSD1 Inhibitor Iadademstat in combination with a variety of drugs and investigational agents in selected tumor cell lines The current study was undertaken to assess response to LSD1 inhibitors in combination with standard-of-care drugs and investigational agents in solid tumor complex spheroid models as well as in the K-562 leukemia. […] Compounds. […] If the clinical Cmax for an agent had not been determined, the highest concentration tested was 10 microM. […]
pIC50: −log10 of the molar value.
This section presents compounds with their documented pIC50 values.
Measure: pIC50

>  <Compound>
Nc1ncn(C2CC(O)C(CO)S2)c(=O)n1 (configuration not stated) + NC1CC1c1ccc(-c2cccc(O)c2)cc1

>  <Comparative Sign>
<

>  <Endpoint Value>
6.52

$$$$
>  <Compound>
COc1cc(C2c3cc4c(cc3C(OC3OC5COC(C)OC5C(O)C3O)C3COC(=O)C23)OCO4)cc(OC)c1O (configuration not stated) + NC1CCC(NC2CC2c2ccccc2)CC1

>  <Comparative Sign>
<

>  <Endpoint Value>
5.52

$$$$
>  <Compound>
O=C(C=Cn1cnc(-c2cc(C(F)(F)F)cc(C(F)(F)F)c2)n1)NNc1cnccn1 + NC1CC1c1ccc(-c2cccc(O)c2)cc1

>  <Comparative Sign>
=

>  <Endpoint Value>
8.23

$$$$
>  <Compound>
O=C(C=Cn1cnc(-c2cc(C(F)(F)F)cc(C(F)(F)F)c2)n1)NNc1cnccn1 + NC1CCC(NC2CC2c2ccccc2)CC1

>  <Comparative Sign>
=

>  <Endpoint Value>
8.20

$$$$
>  <Compound>
CC1COCCN1c1cc(C2(S(C)(=N)=O)CC2)nc(-c2ccnc3[nH]ccc23)n1 (configuration not stated) + NC1CC1c1ccc(-c2cccc(O)c2)cc1

>  <Comparative Sign>
=

>  <Endpoint Value>
5.41

$$$$
>  <Compound>
COc1cc(Nc2ncc3c(n2)-c2ccc(Cl)cc2C(c2c(F)cccc2OC)=NC3)ccc1C(=O)O + NC1CC1c1ccc(-c2cccc(O)c2)cc1

>  <Comparative Sign>
=

>  <Endpoint Value>
6.74

$$$$
>  <Compound>
Nc1ccccc1NC(=O)c1ccc(CNC(=O)OCc2cccnc2)cc1 + NC1CCC(NC2CC2c2ccccc2)CC1

>  <Comparative Sign>
=

>  <Endpoint Value>
6.00

$$$$

====

Test system: 138582-337-R-J1-PDC complex spheroid viability
Experiment: Anticancer human tumor 138582-337-R-J1-PDC cell line growth inhibition;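 further: spheroids exposed to agents for 7 days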;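 on viability, T/C: 100% = DMSO vehicle control viability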
Conditions: second compound 0.1 µM; first compound 0.0949 µM; stronger effect = lower value
API: label(entry) gives 1 (yes) if the entry's viability, T/C is strictly smaller than 70%; on equality or larger values it gives 0 (no).

>  <Compound>
Nc1ccn(C2OC(CO)C(O)C2(F)F)c(=O)n1 (stereo unspecified) + NC1CCC(NC2CC2c2ccccc2)CC1

>  <Label Value>
0 (no)

$$$$
>  <Compound>
CCN(c1cc(-c2ccc(CN3CCOCC3)cc2)cc(C(=O)NCc2c(C)cc(C)[nH]c2=O)c1C)C1CCOCC1 + NC1CC1c1ccc(-c2cccc(O)c2)cc1

>  <Label Value>
1 (yes)

$$$$
>  <Compound>
Nc1ccccc1NC(=O)c1ccc(CNC(=O)OCc2cccnc2)cc1 + NC1CCC(NC2CC2c2ccccc2)CC1

>  <Label Value>
0 (no)

$$$$
>  <Compound>
CCN(c1cc(-c2ccc(CN3CCOCC3)cc2)cc(C(=O)NCc2c(C)cc(C)[nH]c2=O)c1C)C1CCOCC1 + NC1CCC(NC2CC2c2ccccc2)CC1

>  <Label Value>
0 (no)

$$$$
>  <Compound>
Nc1ccn(C2OC(CO)C(O)C2(F)F)c(=O)n1 (stereo unspecified) + NC1CC1c1ccc(-c2cccc(O)c2)cc1

>  <Label Value>
1 (yes)

$$$$
>  <Compound>
Nc1ncn(C2CC(O)C(CO)S2)c(=O)n1 (stereo unspecified) + NC1CCC(NC2CC2c2ccccc2)CC1

>  <Label Value>
0 (no)

$$$$
>  <Compound>
NS(=O)(=O)OCC1CC(n2ccc3c(NC4CCc5ccccc54)ncnc32)CC1O (stereo unspecified) + NC1CCC(NC2CC2c2ccccc2)CC1

>  <Label Value>
0 (no)

$$$$
>  <Compound>
CCc1c2c(nc3ccc(O)cc13)-c1cc3c(c(=O)n1C2)COC(=O)[C@]3(O)CC + NC1CC1c1ccc(-c2cccc(O)c2)cc1

>  <Label Value>
1 (yes)

$$$$
>  <Compound>
COc1cc(C2c3cc4c(cc3C(OC3OC5COC(C)OC5C(O)C3O)C3COC(=O)C23)OCO4)cc(OC)c1O (stereo unspecified) + NC1CCC(NC2CC2c2ccccc2)CC1

>  <Label Value>
1 (yes)

$$$$
>  <Compound>
Nc1ncn(C2CC(O)C(CO)S2)c(=O)n1 (stereo unspecified) + NC1CC1c1ccc(-c2cccc(O)c2)cc1

>  <Label Value>
0 (no)

$$$$
>  <Compound>
Nc1ccccc1NC(=O)c1ccc(CNC(=O)OCc2cccnc2)cc1 + NC1CC1c1ccc(-c2cccc(O)c2)cc1

>  <Label Value>
0 (no)

$$$$
>  <Compound>
CCc1c2c(nc3ccc(O)cc13)-c1cc3c(c(=O)n1C2)COC(=O)[C@]3(O)CC + NC1CCC(NC2CC2c2ccccc2)CC1

>  <Label Value>
1 (yes)

$$$$
>  <Compound>
NS(=O)(=O)OCC1CC(n2ccc3c(NC4CCc5ccccc54)ncnc32)CC1O (stereo unspecified) + NC1CC1c1ccc(-c2cccc(O)c2)cc1

>  <Label Value>
1 (yes)

$$$$
>  <Compound>
O=C(C=Cc1cccc(S(=O)(=O)Nc2ccccc2)c1)NO + NC1CCC(NC2CC2c2ccccc2)CC1

>  <Label Value>
0 (no)

$$$$
>  <Compound>
O=C(C=Cc1cccc(S(=O)(=O)Nc2ccccc2)c1)NO + NC1CC1c1ccc(-c2cccc(O)c2)cc1

>  <Label Value>
1 (yes)

$$$$
>  <Compound>
COc1cc(C2c3cc4c(cc3C(OC3OC5COC(C)OC5C(O)C3O)C3COC(=O)C23)OCO4)cc(OC)c1O (stereo unspecified) + NC1CC1c1ccc(-c2cccc(O)c2)cc1

>  <Label Value>
1 (yes)

$$$$
